assay: antimalarial activity against Dd2 strain (AID 2302);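 also: 0% = DMSO untreated growth and 100% = chloroquine plus artemisinin killed control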; details: P. falciparum Dd2 in RBCs, LDH growth readout, 72 h; at 2 µM; hits give high values
Activity calls are given as the source filed them.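 The calls were made as follows: active = growth inhibition above 50% at the single 2 µM test dose, taken to imply half-maximal potency below 2 µM; inactive = the rest.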
valueType: growth inhibition

The molecule listed as C[C@H](Cc1ccc(OCCCCCCOc2ccccc2)cc1)NC[C@@H](O)c1cc(Br)no1 has a reported growth inhibition of 70% (active)

Briefly, growth inhibition measured for Cc1ccc(CC(C)NC[C@H](O)c2cccc(Cl)c2)cc1 (some centres undefined) : 47% (inactive)

Lab book: growth inhibition of FC(F)(F)c1ccc(NC(=S)N2CCC(CN3CCC(c4c[nH]c5ccccc45)CC3)CC2)cc1 noted as 45% (inactive)

Lab note: COc1c(F)cc(CC(C)NCC(O)c2cccc(Cl)c2)cc1F (centres undefined) gave growth inhibition of 86% (active)

The molecule identified as CC(C)n1ncc2c(C(=O)Nc3ccc(C#N)c(Cl)c3)cc(C3CC3)nc21 registered its growth inhibition at 15% (inactive)

Form field growth inhibition, entry CCN1CCC(N2CCC(n3c(C)nc4cc(C(F)(F)F)ccc43)CC2)CC1 : 16% (inactive)

Field growth inhibition (entry CC(=O)C1(c2ccccc2)CCN(CCC2(c3ccc(Cl)c(Cl)c3)CN(C(=O)Nc3cc(F)cc(F)c3)CCO2)CC1 (centres undefined) ) reads 20% (inactive)

Cc1cccc(N2CCN(Cc3cc(Cl)ccc3O)CC2)c1C yielded growth inhibition of 96% (active)

molecule O=C(/C=C/c1c(Cl)cccc1Cl)NC1CCC(CN2[C@@H]3CC[C@H]2CC(c2c[nH]c4ccccc24)C3)CC1 (some centres undefined) , growth inhibition observed: 18% (inactive)

For Cc1ccc(C(=O)Nc2ccnc(N(C)C3CCN(Cc4cccc(O)c4)CC3)c2)cn1 the molecule record lists growth inhibition as 1% (inactive)

// growth inhibition value for Cc1[nH]c2ccccc2c1C1=CCN(CCCCC2(C)C(=O)Nc3cccc(F)c32)CC1 (centres undefined) : 90% (active)

Form field growth inhibition, entry O=c1c2ccccc2nc(C=Cc2ccc([N+](=O)[O-])cc2)n1-c1ccccn1 : 96% (active)

Value of growth inhibition reported for the molecule CN(C)CCc1c[nH]c2ccc(C(=O)Nc3ccc(-c4ccncc4)cc3)cc12 is 46% (inactive)

Cc1[nH]c2ccc(NS(C)(=O)=O)cc2c1C1CCN(CC2CCN(C(=O)/C=C/c3ccc(Cl)c(Cl)c3)CC2)CC1 yielded growth inhibition of 83% (active)

Input CC[C@H]1CN2CCc3cc(OC)c(OC)cc3[C@@H]2C[C@@H]1C[C@H]1NCCc2c1cc(OC)c(O)c2I . Output growth inhibition: 101% (active)

Note to self: growth inhibition recorded for CN1CC=C(c2c[nH]c3ccc(OC(=O)c4ccccc4)cc23)C1 was 97% (active)

Reported growth inhibition ( Cc1[nH]c2cc(Cl)ccc2c1C1=CCN(CCN2CCOc3c(Br)cccc3C2=O)CC1 ) = 58% (active)

Record summary for Cc1ccc(CC(C)NCC(O)c2cccc(C#N)c2)cc1 (centres undefined) : reported growth inhibition = 86% (active)

growth inhibition reported for this molecule COc1cccc(C(=O)[C@H]2C[C@@H]2CN2CC=C(c3c[nH]c4cccc(Br)c34)CC2)c1 : 85% (active)

Sure, the documented growth inhibition for COc1cccc(C2(NC[C@@H](O)[C@H](Cc3ccccc3)NC(=O)c3ccccc3)CCCCC2)c1 is 67% (active)

For this molecule ( CCCCCCCc1cc(=O)c2ccccc2[nH]1 ), measured growth inhibition is 94% (active)

According to the records, this molecule O=C(/C=C/c1ccc(Cl)c(Cl)c1)NCCC1CCC(N2CCC(c3c[nH]c4ccc(O)cc34)CC2)CC1 (centres undefined) displays growth inhibition of 3% (inactive)

Looking up CC[C@H]1CN2CC[C@@H]1C[C@H]2[C@H](O)c1ccnc2ccc(OC)cc12 , I found its growth inhibition recorded as 61% (active)

// recorded growth inhibition for Cc1cc(CN2CCN(CCOC(c3ccccc3)c3ccccc3)CC2)ccc1O : 96% (active)

According to the records, this molecule COc1ccc(OC)c([C@H](O)[C@@H](C)NCc2cc(Cl)ccc2O)c1 displays growth inhibition of 99% (active)

Lab note: CC(C)CN1CCC(N(C)c2cc(NC(=O)c3cccc(F)c3)ccn2)CC1 gave growth inhibition of 10% (inactive)

Kindly note the recorded growth inhibition for C/C=C1/CN2CC[C@H]1C[C@H]2[C@H](O)c1ccnc2ccc(OC)cc12 , which is 45% (inactive)

The molecule CCC1(C)CC(CCNCc2ccccc2O)(c2ccc(F)cc2)CCO1 (centres undefined) showed growth inhibition equal to 32% (inactive)

Short answer for Cc1cccc2[nH]cc(C3CCN(CC4CCC(NC(=O)/C=C/c5ccc(Cl)c(Cl)c5)CC4)CC3)c12 (centres undefined) : growth inhibition was 97% (active)

* * *

system: R275C/Slo1WT/beta2; assay: modulators of BK channel variants, profiling panel, selectivity assay, cell-based, U2OS BacMam, thallium flux, beta subunits (AID 1259406); conditions: at 30 µM;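 also: initial slope of Thallos dye fluorescence rise after thallium is added; log ratio against the mean of 0.3% DMSO vehicle wells on the same plate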
The source made the active and inactive calls.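 How the source made its calls: active means thallium flux through the channel raised or lowered by more than 3 SD from vehicle-only wells, actives on both sides; inactive means the rest.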
valueType: log fold change Tl+ flux

So for O=C(O)CCCc1ccc(N(CCCl)CCCl)cc1 , the logged log fold change Tl+ flux turned out to be 0.0346 (inactive)

The reported value for C[C@]12CCC(=O)C=C1CC[C@@H]1[C@@H]2CC[C@@]2(C)[C@H]1CC[C@]2(C)O in terms of log fold change Tl+ flux is -0.0244 (inactive)

Entry CCN(CC)CCOC(=O)C(O)(c1ccccc1)c1ccccc1 — recorded log fold change Tl+ flux = -0.00361 (inactive)

log fold change Tl+ flux reading for C[C@]12CC(=CO)C(=O)C[C@@H]1CC[C@@H]1[C@@H]2CC[C@@]2(C)[C@H]1CC[C@]2(C)O : 0.0227 (inactive)

* * *

system: Aerobactin synthetase IucA (Klebsiella pneumoniae hvKP1); test: Biochemical IucA enzyme inhibition primary screen of the Spectrum library (AID 1346200); conditions: malachite green pyrophosphate, A620, at 8 µM, hits give low values;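 also: 100% = wells without compound and 0% = wells lacking enzyme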
valueType: activity remaining (%)
Please reply with the bare figure in % and do not write the unit itself.

activity remaining in this record for O=C(O)c1cc(=O)c2cccc(O)c2[nH]1 : 97.3

Entry CC(=O)OCC(=O)[C@H]1CCC2C3CC=C4C[C@@H](O)CC[C@]4(C)C3CC[C@@]21C (stereo partly specified) , activity remaining reported as 92.3

activity remaining in this record for O=C(Nc1ccc([N+](=O)[O-])cc1Cl)c1cc(Cl)ccc1O : 93.6

Recorded result, COc1ccc2c(=O)c(CC(=O)O)coc2c1 , activity remaining: 117

The compound COC(=O)[C@@]1(C)CCC[C@]2(C)c3ccc(O)c(C(C)C)c3CCC12 (stereo partly specified) showed activity remaining equal to 121

activity remaining reading for Oc1cccc2cccnc12 : 111

The measured activity remaining associated with CC(=O)Nc1cccc(O)c1 reads 120

Kindly note the recorded activity remaining for CCNC(=O)CC[C@H](N)C(=O)O , which is 119

response.value for CC(C)Oc1ccc2c(=O)cc(-c3ccccc3)oc2c1 (field: activity remaining) = 114

response.value for COc1cc2c(cc1O)[C@@H](Cc1ccc(O)cc1)[N+](C)(C)CC2 (field: activity remaining) = 75.4

Entry CC(=O)O[C@H]1C[C@@H](OC(C)=O)C(C)(C)C2C[C@@H](OC(C)=O)[C@]3(C)C(CC[C@@]4(C)[C@H](c5ccoc5)OC(=O)[C@H]5O[C@]543)[C@]21C (stereo partly specified) — recorded activity remaining = 103

Just so you know, measured activity remaining for O=C1C=CC2=C3c4cc(O)c(O)cc4C[C@@]3(O)COC2=C1 came out at 120

Lookup result for CN1CCCN=C1COC(=O)C(O)(c1ccccc1)C1CCCCC1 (stereo unspecified) ; measured activity remaining: 108

Sure, the documented activity remaining for NC(=O)CS(=O)C(c1ccccc1)c1ccccc1 (stereo unspecified) is 120

Record COc1cc2ccc(=O)oc2c(O)c1O . Reported activity remaining: 112

// field: activity remaining; key: c1ccc2c(c1)CCCC2C1=NCCN1 (stereo unspecified) ; value = 110

* * *

Consider the following compounds; for each one, report its activity remaining.
tested on: Aerobactin synthetase IucA (Klebsiella pneumoniae hvKP1); experiment: Biochemical IucA enzyme inhibition primary screen of the Spectrum library (AID 1346200); details: malachite green pyrophosphate, A620, at 8 µM, hits give low values;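 also: 100% = wells without compound and 0% = wells lacking enzyme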
Numeric only. Scale: %

get_value(item= COc1ccccc1OCC(O)CN1CCN(CC(=O)Nc2c(C)cccc2C)CC1 (centres undefined) , readout=activity remaining) returns 122

// field: activity remaining; key: C=C[C@H]1CN2CC[C@H]1C[C@@H]2[C@@H](O)c1ccnc2ccc(OC)cc12 ; value = 98.9

Field activity remaining (entry O=C(O)c1cc2cc(F)ccc2[nH]1 ) reads 106

// C[C@]12C=CC(=O)C=C1CCC1C2C(=O)C[C@@]2(C)C1CC[C@]2(O)C(=O)CO (some centres undefined) : activity remaining value = 101

Notebook: CC[C@@H](CO)NC(=O)[C@@H]1C=C2c3cccc4[nH]cc(c34)C[C@H]2N(C)C1 , activity remaining read as 97

activity remaining reading for CCN(CC)CCOC(=O)C(c1ccccc1)c1ccccc1 : 112

Given item O=C(NC1CCCCC1)NC1CCCCC1 , the value recorded as its activity remaining is 71.2

Lab book: activity remaining of C/C(=C\CO)CC[C@H](C)CCC[C@H](C)CCCC(C)C noted as 121

The compound CC1CC(OC(=O)c2ccccc2O)CC(C)(C)C1 (centres undefined) showed activity remaining equal to 110
